- testSummary: Hydrolyzability test in rat plasma solution
- Format: in vitro ADME
- reportedConditions: 37° C., production of tocotrienol, Michaelis-Menten model
Class label 1: Km at least 800 µM. Class label 0: Km below 800 µM.

Form field: Km at least 800 µM? Entry: CC(C)=CCC/C(C)=C/CC/C(C)=C/CC[C@]1(C)CCc2c(C)c(OC(=O)CCC(=O)O)c(C)c(C)c2O1 [d-α-T3S, d-α-tocotrienolsuccinic acid ester, reference compound] label 0

Form field: Km at least 800 µM? Entry: CC(C)=CCC/C(C)=C/CC/C(C)=C/CC[C@]1(C)CCc2cc(OC(=O)CN)c(C)c(C)c2O1.Cl [d-γ-T3AA, hydrochloride] label 1

Form field: Km at least 800 µM? Entry: CNCC(=O)Oc1c(C)c(C)c2c(c1C)CC[C@@](C)(CC/C=C(\C)CC/C=C(\C)CCC=C(C)C)O2.Cl [d-α-T3MA, hydrochloride] label 1

Form field: Km at least 800 µM? Entry: CNCC(=O)Oc1cc2c(c(C)c1C)O[C@](C)(CC/C=C(\C)CC/C=C(\C)CCC=C(C)C)CC2.Cl [d-γ-T3MA, hydrochloride] label 1

Form field: Km at least 800 µM? Entry: CC(C)=CCC/C(C)=C/CC/C(C)=C/CC[C@]1(C)CCc2cc(OC(=O)CCC(=O)O)c(C)c(C)c2O1 [d-γ-T3S, d-γ-tocotrienolsuccinic acid ester, reference compound] label 1

* * *

- testSummary: Hydrolyzability test in rat liver microsome solution
- Type: in vitro ADME
Listed below: Km values for each entry.
Kindly provide the numeric value in µM only, without the unit symbol.

Worked examples, 3 compounds total:
- compound: "CC(C)=CCC/C(C)=C/CC/C(C)=C/CC[C@]1(C)CCc2cc(OC(=O)CCC(=O)O)c(C)c(C)c2O1 [d-γ-T3S, d-γ-tocotrienolsuccinic acid ester, reference compound]"
  readingUnit: "µM"
  Km: 22.1
- compound: "CC(C)=CCC/C(C)=C/CC/C(C)=C/CC[C@]1(C)CCc2c(C)c(OC(=O)CN(C)C)c(C)c(C)c2O1.Cl [d-α-T3DMA, hydrochloride]"
  readingUnit: "µM"
  Km: 5970
- compound: "CNCC(=O)Oc1c(C)c(C)c2c(c1C)CC[C@@](C)(CC/C=C(\\C)CC/C=C(\\C)CCC=C(C)C)O2.Cl [d-α-T3MA, hydrochloride]"
  readingUnit: "µM"
  Km: 109

Moving on to the next compound.
Given item CC(C)=CCC/C(C)=C/CC/C(C)=C/CC[C@]1(C)CCc2c(C)c(OC(=O)CCC(=O)O)c(C)c(C)c2O1 [d-α-T3S, d-α-tocotrienolsuccinic acid ester, reference compound] , the value recorded as its Km is 30.3

* * *

- testSummary: Hydrolyzability test in rat liver microsome solution
- Type: in vitro ADME
- reportedConditions: liver microsome, 37° C., production of tocotrienol, Michaelis-Menten model; read-out: Km
parameterMeasured: Km (µM)
Kindly provide the numeric value in µM only, without the unit symbol.

- compound: "CNCC(=O)Oc1cc2c(c(C)c1C)O[C@](C)(CC/C=C(\\C)CC/C=C(\\C)CCC=C(C)C)CC2.Cl [d-γ-T3MA, hydrochloride]"
  parameterMeasured: "Km"
  readingUnit: "µM"
  measValue: 2100

Given item CC(C)=CCC/C(C)=C/CC/C(C)=C/CC[C@]1(C)CCc2cc(OC(=O)CN(C)C)c(C)c(C)c2O1.Cl [d-γ-T3DMA, hydrochloride] , the value recorded as its Km is 5580

Given item CC(C)=CCC/C(C)=C/CC/C(C)=C/CC[C@]1(C)CCc2cc(OC(=O)CN)c(C)c(C)c2O1.Cl [d-γ-T3AA, hydrochloride] , the value recorded as its Km is 1560

Where these numbers come from: patent US6599933B2
